PROCEDURE SUMMARY: Log P determination by potentiometric titration
Type: physicochemical
CONDITIONS USED: octanol/ionic-strength adjusted (ISA) water, pH 7.4; read-out: Measured LogD7.4
ASSAY READOUT: logD

> print(dat)
                           smiles.structure  numeric.result
1  CN1C/C=C/CCOc2cccc(c2)-c2ccnc(n2)Nc2cccc(c2)C1            3.34

###

PROCEDURE SUMMARY: Log P determination by potentiometric titration
Assay type: physicochemical
CONDITIONS USED: octanol/ionic-strength adjusted (ISA) water; octanol:ISA water; read-out: Measured LogP
ASSAY READOUT: logP

> print(dat)
                                   molecule  assay.readout  numeric.result
1  CN1C/C=C/CCOc2cccc(c2)-c2ccnc(n2)Nc2cccc(c2)C1 [Compound I]           logP            4.72

###

PROCEDURE SUMMARY: Thermodynamic aqueous solubility
Assay type: physicochemical
CONDITIONS USED: 25 °C, thermodynamic from solid; water
Quick reference for solubility at 24 h among some molecules
ASSAY READOUT: solubility at 24 h (µg/mL)

> print(dat)
                                   molecule       assay.readout  qualifier.operator  numeric.result
1  CN1C/C=C/CCOc2cccc(c2)-c2ccnc(n2)Nc2cccc(c2)C1  solubility at 24 h                   <               1
2  CN1CC=CCCOc2cccc(c2)C2=CC=NC(=Nc3cccc(c3)C1)N2.O=C(O)/C=C/C(=O)O [Fumarate Pattern 2]  solubility at 24 h                   =              29
3  CN1CC=CCCOc2cccc(c2)C2=CC=NC(=Nc3cccc(c3)C1)N2.O=C(O)CC(O)(CC(=O)O)C(=O)O [Citrate Pattern 1]  solubility at 24 h                   =             160
